# ASSAY_DETAILS: qHTS assay for small molecule agonists of the antioxidant response element (ARE) signaling pathway (AID 743202)
# EXPERIMENTAL_CONTEXT: HepG2 ARE-bla reporter, beta-lactamase FRET, 16 h; series mostly up to 73.3 µM
Results filed as inconclusive are left out. Active and inactive are the calls of the source. The call rests on the fitted dose curve; in most records, active means well fitted activation curve with a large enough effect in the signal ratio in the repeat runs (not every such curve was filed as active); inconclusive means weak or mixed curves, or effect the other way; inactive means no such curve, though single readings can be large or run the other way; the % refers to the signal ratio.
Choose the fitting class; nothing outside TRUE for active, FALSE for inactive is accepted.

Hi, sorry to bother you, what did the test record for CC(=O)/C(C)=C/C1C(C)=CCCC1(C)C (stereo not given) ? FALSE

// query: `Nc1nc(N)c(-c2ccccc2)s1` FALSE

Request: CC(C)(C)C1CCCCC1O (stereo not given) FALSE

Similarly, `CC(=O)O[C@H]1C[C@@H]2CC[C@@H]3[C@H](CC[C@@]4(C)[C@H]3C[C@H]([N+]3(C)CCCCC3)[C@@H]4OC(C)=O)[C@@]2(C)C[C@@H]1N1CCCCC1` ? FALSE

Cool, now `O=C(O)[C@@H]1[C@H]2C[C@H]3c4[nH]c5ccccc5c4CCN3C[C@@H]2CC[C@@H]1O` FALSE

Also CCCCOC(O)CC (stereo not given) ? FALSE

Next molecule: `CC1(C)[C@H]2CC[C@]1(C)[C@H](O)C2` FALSE

Now consider O=C(c1ccccc1)c1ccc2n1CCC2C(=O)O (stereo not given) . FALSE

Try the molecule `Oc1ccc2c(c1)OCO2` FALSE

Next: `CC(=O)OC/C=C/c1ccccc1` FALSE

Queued: `CC(=O)O[C@@H]1C(=O)O[C@@H]2[C@H]1OC(=O)[C@@H]2OC(C)=O` TRUE

Again, but for `CCOC(=O)CC(=O)c1cc(F)c(Cl)nc1Cl` FALSE

Next entry: `Nc1cnn([C@@H]2O[C@H](CO)[C@@H](O)[C@H]2O)c(=O)n1` FALSE

Moving on to OC(CCN1CCCCC1)(c1ccccc1)C1CCCCC1 (stereo not given) FALSE

Thanks! And `CC(=O)CC(=O)c1ccccc1` ? FALSE
